Source of measurements: ChEMBL document CHEMBL1201862

- System: DU-145
- Test details: NCI tumour cell line growth inhibition, 48 h
Activity calls are given as the source filed them. Cut-off read from the data, not from the text of the source: active = GI50 up to about 1.1 µM and inactive = higher.
Form entry, call: pick from true (active), false (inactive)

The examples below pair each entry with its known result.
Cc1c(O)c(OC2OC(CO)C(O)C(O)C2O)cc2c1C=C[C@@H]1[C@@]2(C)C(=O)C[C@]2(C)[C@@H]([C@@](C)(O)C(=O)CCC(C)(C)O)[C@H](O)C[C@@]12C (stereo partly drawn); false
Cc1cc(S(N)(=O)=O)c(S/C(=N\Nc2ccc([N+](=O)[O-])cc2)c2ccc(Cl)cc2)cc1Cl; false
CNC1=CC(=O)C2=C(C1=O)[C@H]1CC[C@]3(C)C(=O)CC[C@H]3[C@@H]1CC2; false
COc1ccc2c(c1OC)C(C(Cl)(Cl)Cl)N1CCc3cc4c(cc3C1=C2)OCO4 (stereo not drawn); false
CC1=CC(=O)C[C@]2(C)[C@@H](O)CC(C(C)CO)C[C@@H]12 (stereo partly drawn); false
COc1cc2c3c(c1Oc1nnnn1-c1ccccc1)-c1c(ccc4c1OCO4)C[C@H]3N(C)CC2; false
C[C@H]1CC[C@H](NC(=O)N(CCCl)N=O)CC1; false
COc1nc(N)c(C#N)c(C#N)c1C#N; false

Q: What was the test verdict on `C=CC[C@H]1[C@H](O[Si](C)(C)C(C)(C)C)C=CC(=O)[C@@H]1CC(=O)N(Cc1ccccc1)Cc1ccccc1` ?
Result: false

Q: Short answer needed: outcome of this test for `Nc1nccc2c1ncn2[C@H]1C[C@H](O)[C@@H](CO)O1` ?
Result: false

Q: I would be grateful if you could indicate the recorded call for `CCN(CC)S(=O)(=O)c1ccc2[nH]c(NC(=O)OC)nc2c1` .
Result: false

Q: // return assay outcome for `C/C1=C\[C@@H](C)C[C@@H](C)OC(=O)[C@@H](C)NC(=O)[C@H](Cc2ccc(O)c(Br)c2)N(C)C(=O)CNC(=O)[C@H](C)C1`
Result: true

Q: Hello, I am checking results. What call was entered for `[O-]c1c[n+](-c2ccccc2)no1` ?
Result: false

Q: I'd appreciate the recorded outcome for `O=C1CCN(CCC(F)(F)C(F)(F)C(F)(F)C(F)(F)C(F)(F)C(F)(F)F)C(=S)N1CCC(F)(F)C(F)(F)C(F)(F)C(F)(F)C(F)(F)C(F)(F)F` from this test.
Result: false

Q: Which outcome did this test record for the molecule `FC(F)(F)c1ccc(/N=C/C=C(/Nc2ccc(C(F)(F)F)cc2)c2ccc(Cl)cc2)cc1` ?
Result: false

Q: Hi team, can someone confirm the assay call for CCCCCC(/C=C/[C@@H]1[C@@H](C(O)CCCCCC(=O)OC)C(=O)C[C@H]1O[Si](C)(C)C(C)(C)C)OCOCCOC (stereo partly drawn) ?
Result: false

Q: What classification did `CC(C)CCC[C@@H](C)[C@H]1CC[C@H]2[C@@H]3CC[C@H]4C[C@H](N)CC[C@]4(C)[C@H]3CC[C@]12C` end up with in this test?
Result: false

Q: What is the recorded call for this molecule in the test? O=NN(CCCl)C(=O)NC1CCC(=O)NC1=O (stereo not drawn)
Result: false

Q: Can you look up the reported call for O=C(O)C(C(C(=O)O)P(=O)(O)O)P(=O)(O)O (stereo not drawn) for me?
Result: false

Q: Field: outcome | Entry: `COC(=O)/C=C/c1cc(OC)c2oc(-c3ccc(OC)c(OC)c3)c(C(=O)OC)c2c1`
Result: false

Q: Write down the call the test reported for this molecule. Item: `O=c1[nH]c(=S)c2cc3c(=S)[nH]c(=O)n(CCC(c4ccccc4)(c4ccccc4)c4ccccc4)c3nc2n1CCC(c1ccccc1)(c1ccccc1)c1ccccc1`
Result: false
